Where do the numbers come from? From patent US4904668A.

# assay_summary: oral administration of wet pulverized formulations to rats, AUC of concentration in blood
# Type: in vivo, Wister male rats
# condition_parameters: rat, plasma, 50 mg/kg, particle size 0.31 μm, 50 mg/5 ml/kg, compound 40 w/v%, HCO-60 10 w/v%
endpoint: AUC(0-t) at 24 h (µg·h/mL)
Provide the reading as a plain figure in µg·h/mL.

Using the record for `O=C(NC(=O)c1ccccc1[N+](=O)[O-])Nc1ccc(Oc2ncc(Br)cn2)c(Cl)c1` , report its AUC(0-t) at 24 h.
11.6

---

# assay_summary: oral administration of wet pulverized formulations to rats, AUC of concentration in blood
# Assay type: in vivo, Wister male rats
# condition_parameters: rat, plasma, 50 mg/kg, particle size 1.5 μm, 50 mg/5 ml/kg, compound 40 w/v%, HCO-60 10 w/v%
endpoint: AUC(0-t) at 24 h (ng·h/mL)
Provide the reading as a plain figure in ng·h/mL.

Using the record for `O=C(NC(=O)c1ccccc1[N+](=O)[O-])Nc1ccc(Oc2ncc(Br)cn2)c(Cl)c1` , report its AUC(0-t) at 24 h.
8100
